Assay: qHTS Screen for Compounds that Selectively Target Cancer Cells with p53 Mutations: Cytotoxicity of p53 Null Cells at the Permissive Temperature; further: nearly all actives have a fitted effect of over 55% in size
Settings: H1299-neo p53 null cells, ATP luminescence, 24 h, 32C; series mostly up to 46.1 µM
Out of some 55,000 compounds screened, about 340 (0.62%) were called active. About 3% were inconclusive and are not listed. The call rests on the fitted dose curve; in most records, active means well fitted cell-killing curve with a large enough effect; inconclusive means small, poorly fitted or top-dose-only effect; inactive means no such curve, though single readings can be large or run the other way. The list comes from a sample in which actives are over-represented; it also holds close analogues and randomly drawn compounds.
Entry note: the call must match one of active, inactive

INSERT INTO assay_data (compound, class) VALUES
  ('Cc1cc(C)cc(NC(=O)Cc2csc(C)n2)c1', 'inactive'),
  ('COC(=O)c1ccc(NC(=O)c2cnn(-c3ccc(Cl)cc3)c2C2CCN(C(=O)OC(C)(C)C)CC2)cc1', 'inactive'),
  ('CCOC(=O)CSc1nc2ccc(C)cc2[nH]1', 'inactive');

Inquiry: Which result was noted for this compound in the test: COc1ccc(C(=O)COC(=O)CCCC(=O)Nc2cc(C(F)(F)F)ccc2Cl)cc1
Reply text: inactive

Inquiry: Consider next the compound Cc1ccc2nc3c(cc(C(=O)NC4CCCCC4)c(=N)n3C(C)C)c(=O)n2c1 in the same way.
Reply text: inactive

Inquiry: Consider next the compound COc1ccccc1Nc1c2c(nc3ccc(NC(=O)/C=C/c4cc(OC)c(OC)c(OC)c4)cc13)CCCC2 in the same way.
Reply text: active

---

Assay: qHTS Screen for Compounds that Selectively Target Cancer Cells with p53 Mutations: Cytotoxicity of p53 Null Cells at the Permissive Temperature; further: nearly all actives have a fitted effect of over 55% in size
Conditions: H1299-neo p53 null cells, ATP luminescence, 24 h, 32C; series mostly up to 46.1 µM
Screen size: about 55,000 compounds; about 340 (0.62%) were called active. Inconclusive results (about 3%) are left out. The call rests on the fitted dose curve; in most records, active means well fitted cell-killing curve with a large enough effect; inconclusive means small, poorly fitted or top-dose-only effect; inactive means no such curve, though single readings can be large or run the other way. The full list was thinned out, with actives kept by preference.
Entry note: the call must match one of active, inactive

INSERT INTO results (compound, class) VALUES
  ('CC(C)(C)c1ccc(C(=O)NCC(c2ccco2)S(=O)(=O)c2ccc(F)cc2)cc1 (stereo unspecified)', 'inactive');

Attention now shifts to the item below.
Inquiry: Which result was noted for this compound in the test: CC(=O)c1ccc(NC(=O)Nc2ccc([N+](=O)[O-])cc2C)cc1
Reply text: inactive

---

Test: qHTS Screen for Compounds that Selectively Target Cancer Cells with p53 Mutations: Cytotoxicity of p53 Null Cells at the Permissive Temperature; further: nearly all actives have a fitted effect of over 55% in size
Details: H1299-neo p53 null cells, ATP luminescence, 24 h, 32C; series mostly up to 46.1 µM
Hit rate of the full screen: of about 55,000 compounds, about 340 (0.62%) were called active. Roughly 3% stayed inconclusive and do not appear here. Calls come from the whole dose curve; as a rule, active = well fitted cell-killing curve with a large enough effect; inconclusive = small, poorly fitted or top-dose-only effect; inactive = no such curve, though single readings can be large or run the other way. Shown is part of a subset that was picked to be rich in actives.
Entry note: the call must match one of yes (1) = active, no (0) = inactive

INSERT INTO results (structure_notation, class) VALUES
  ('CC(C)c1ccc(NC(=O)c2ccc3c(O)c(S(=O)(=O)c4ccccc4)c(=O)[nH]c3c2)cc1', 'yes (1)'),
  ('COC(=O)c1cc2occc2n1Cc1nc(-c2ccc(C)cc2)oc1C', 'no (0)'),
  ('Cc1nn2c(=O)cc(COC(=O)c3cccc(NC(=O)COc4ccccc4Cl)c3)nc2s1', 'yes (1)');

Inquiry: Which result was noted for this compound in the test: Cc1nn2c(=O)cc(COC(=O)c3ccccc3NC(=O)COc3ccccc3C)nc2s1
Reply text: no (0)
